- Assay: Selectivity ratio of IC50 for cytotoxicity against human HBE cells to MIC80 for antifungal activity against clinical isolate fluconazole-resistant Candida albicans G5 harbouring MRR1 mutation overexpressing MdrL
- Assay type: toxicity, cell-based
Value Type: selectivity ratio
Enter the number alone.

Task: Consider the compound shown here: `C=C1C(=O)[C@@]2(C)CC[C@@H]3[C@@]1(CC[C@H]1[C@@]3(C)CCC[C@@]1(C)C(=O)OCCCOc1ccc(C(=N)N)cc1)C2` What is its recorded selectivity ratio?
Result: 8

###

- Assay: Cytotoxicity against mouse L929 cells assessed as inhibition of cell growth measured after 4 hrs by MTT assay
- Assay type: toxicity, cell-based
Value Type: IC50 at 4 h (µg/mL)
Value expressed in µg/mL; do not type the unit.

C=C1C[C@@]23CC[C@H]4[C@@](C)(CCC[C@@]4(C)C(=O)OCCCc4c5[n+](cc6c(OC)c(OC)ccc46)CCc4cc6c(cc4-5)OCO6)[C@@H]2CC[C@]1(O)C3.[I-]: 1.32
C=C1C[C@@]23CC[C@H]4[C@@](C)(CCC[C@@]4(C)C(=O)OCCCn4c(CC)[n+](C)c5ccccc54)[C@@H]2CC[C@]1(O)C3.[I-]: 16.5
C=C1C[C@@]23CC[C@H]4[C@@](C)(CCC[C@@]4(C)C(=O)OCCC[P+](c4ccccc4)(c4ccccc4)c4ccccc4)[C@@H]2CC[C@]1(O)C3.[I-]: 6.94
C=C1C[C@@]23CC[C@H]4[C@@](C)(CCC[C@@]4(C)C(=O)OCCCOc4ccc(C(=N)N)cc4)[C@@H]2CC[C@]1(O)C3: 23.6

Task: Reported IC50 at 4 h, molecule `C=C1C[C@@]23CC[C@H]4[C@@](C)(CCC[C@@]4(C)C(=O)OCCCCC[n+]4c(C)cc(N)c5ccccc54)[C@@H]2CC[C@]1(O)C3.[I-]` : ____
Result: 8.34
